EXPERIMENT_SUMMARY: Peptide stability in simulated intestinal fluid (SIF)
Assay type: in vitro ADME
TEST_CONTEXT: pig, simulated intestinal fluid (SIF) with porcine pancreatin, pH 6.8; Example 2 (Tables 2-1 to 2-4); intact peptide remaining after 4 h; read-out: SIF (% after 4 h)
*1 amine or outer side, *2 acyl side, *3 side chain or, on linkers, in order; H or OH if unused. Where a SMILES comes first, the peptide text is derived from it. Bridges are numbered along the chain shown (N, C = ends). [ ]: non-standard residue; d: D form. 2Nal = N[C@@H](Cc1ccc2ccccc2c1)C(=O)O; AEF = NCCOc1ccc(C[C@H](N)C(=O)O)cc1; X1 = O=C(Cc1ccc(CN[*:1])cc1)[*:2]; 3Pal = N[C@@H](Cc1cccnc1)C(=O)O; αMeL = CC(C)C[C@](C)(N)C(=O)O; Dab = NCC[C@H](N)C(=O)O; Sar = CNCC(=O)O
ASSAY_ENDPOINT: remaining at 4 h, 10 µM (%)
Only the number, expressed in %, is required.

Sure, the documented remaining at 4 h, 10 µM for CC(C)C[C@]1(C)NC(=O)[C@H](Cc2ccc3ccccc3c2)NC(=O)[C@H](Cc2ccc(OCCN)cc2)NC(=O)[C@@H]2CCNC(=O)CC[C@H](NC(=O)[C@H](CO)NC(=O)Cc3ccc(cc3)CNC(=O)CC[C@@H](C(=O)N[C@@H](CCN)C(=O)N[C@H](Cc3cccnc3)C(N)=O)NC1=O)C(=O)N[C@@H](Cc1c[nH]c3ccccc13)C(=O)N[C@@H](CCC(N)=O)C(=O)N2 is 41

Sure, the documented remaining at 4 h, 10 µM for CC(C)C[C@]1(C)NC(=O)[C@H](Cc2ccc3ccccc3c2)NC(=O)[C@H](Cc2ccc(OCCN)cc2)NC(=O)[C@@H]2CCNC(=O)CC[C@H](NC(=O)[C@H](CO)NC(=O)Cc3ccc(cc3)CNC(=O)CC[C@@H](C(=O)N[C@@H](CCN)C(=O)N[C@@H](Cc3cccnc3)C(=O)N[C@H](Cc3c[nH]cn3)C(N)=O)NC1=O)C(=O)N[C@@H](Cc1c[nH]c3ccccc13)C(=O)N[C@@H](CCC(N)=O)C(=O)N2 [Compound 10] ([X1]SEWQ[Dab][AEF][2Nal][αMeL]E[Dab][3Pal][dH]-NH2; lactam 3-6, N-10) is 11

Sure, the documented remaining at 4 h, 10 µM for CC(C)C[C@]1(C)NC(=O)[C@H](Cc2ccc3ccccc3c2)NC(=O)[C@H](Cc2ccc(OCCN)cc2)NC(=O)[C@@H]2CCNC(=O)CC[C@H](NC(=O)[C@H](CO)NC(=O)Cc3ccc(cc3)CNC(=O)CC[C@@H](C(=O)N[C@@H](CCN)C(=O)NCCCCc3cccnc3)NC1=O)C(=O)N[C@@H](Cc1c[nH]c3ccccc13)C(=O)N[C@@H](CCC(N)=O)C(=O)N2 is 73

Sure, the documented remaining at 4 h, 10 µM for CC(C)C[C@]1(C)NC(=O)[C@H](Cc2ccc3ccccc3c2)NC(=O)[C@H](Cc2ccc(OCCN)cc2)NC(=O)[C@@H]2CCNC(=O)CC[C@H](NC(=O)[C@H](CO)NC(=O)Cc3ccc(cc3)CNC(=O)CC[C@@H](C(=O)N[C@@H](CCN)C(=O)N[C@H](Cc3c[nH]cn3)C(N)=O)NC1=O)C(=O)N[C@@H](Cc1c[nH]c3ccccc13)C(=O)N[C@@H](CCC(N)=O)C(=O)N2 is 56

Sure, the documented remaining at 4 h, 10 µM for CNC(=O)[C@H](Cc1cccnc1)NC(=O)[C@H](CCN)NC(=O)[C@@H]1CCC(=O)NCc2ccc(cc2)CC(=O)N[C@@H](CO)C(=O)N[C@H]2CCC(=O)NCC[C@H](NC(=O)[C@H](CCC(N)=O)NC(=O)[C@H](Cc3c[nH]c4ccccc34)NC2=O)C(=O)N[C@@H](Cc2ccc(OCCN)cc2)C(=O)N[C@@H](Cc2ccc3ccccc3c2)C(=O)N[C@@](C)(CC(C)C)C(=O)N1 is 105

Sure, the documented remaining at 4 h, 10 µM for CC(C)C[C@]1(C)NC(=O)[C@H](Cc2ccc3ccccc3c2)NC(=O)[C@H](Cc2ccc(OCCN)cc2)NC(=O)[C@@H]2CCNC(=O)CC[C@H](NC(=O)[C@H](CO)NC(=O)Cc3ccc(cc3)CNC(=O)CC[C@@H](C(=O)N[C@@H](CCN)C(=O)N(C)[C@@H](Cc3cccnc3)C(N)=O)NC1=O)C(=O)N[C@@H](Cc1c[nH]c3ccccc13)C(=O)N[C@@H](CCC(N)=O)C(=O)N2 is 89

Sure, the documented remaining at 4 h, 10 µM for CC(C)C[C@]1(C)NC(=O)[C@H](Cc2ccc3ccccc3c2)NC(=O)[C@H](Cc2ccc(OCCN)cc2)NC(=O)[C@@H]2CCNC(=O)CC[C@H](NC(=O)[C@H](CO)NC(=O)Cc3ccc(cc3)CNC(=O)CC[C@@H](C(=O)N[C@@H](CCN)C(=O)N[C@@H](Cc3cccnc3)C(=O)N(C)CC(N)=O)NC1=O)C(=O)N[C@@H](Cc1c[nH]c3ccccc13)C(=O)N[C@@H](CCC(N)=O)C(=O)N2 [Compound 9] ([X1]SEWQ[Dab][AEF][2Nal][αMeL]E[Dab][3Pal][Sar]-NH2; lactam 3-6, N-10) is 105

Sure, the documented remaining at 4 h, 10 µM for CC(C)C[C@]1(C)NC(=O)[C@H](Cc2ccc3ccccc3c2)NC(=O)[C@H](Cc2ccc(OCCN)cc2)NC(=O)[C@@H]2CCNC(=O)CC[C@H](NC(=O)[C@H](CO)NC(=O)Cc3ccc(cc3)CNC(=O)CC[C@@H](C(=O)N[C@@H](CCN)C(=O)N[C@@](C)(Cc3cccnc3)C(N)=O)NC1=O)C(=O)N[C@@H](Cc1c[nH]c3ccccc13)C(=O)N[C@@H](CCC(N)=O)C(=O)N2 is 109
